Recorded measurements of ΔTm at 10 µM, one per entry
testedSystem: LIMK1KD (Homo sapiens)
Construct: His6 (N, cleaved yes); made in house; host or cells: baculovirus; Sf9 for virus, TriEx insect cells for expression
Sequence (P53667 330-637): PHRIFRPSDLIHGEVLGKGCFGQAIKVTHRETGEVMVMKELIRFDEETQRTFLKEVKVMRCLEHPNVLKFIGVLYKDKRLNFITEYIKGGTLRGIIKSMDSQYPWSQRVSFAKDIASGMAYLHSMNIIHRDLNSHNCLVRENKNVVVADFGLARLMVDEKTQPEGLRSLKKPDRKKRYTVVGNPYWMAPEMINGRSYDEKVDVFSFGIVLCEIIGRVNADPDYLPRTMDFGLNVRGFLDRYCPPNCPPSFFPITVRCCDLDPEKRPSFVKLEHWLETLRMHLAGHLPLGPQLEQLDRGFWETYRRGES
testMethodNotes: Differential (dynamic) scanning fluorimetry (DSF) assay, LIMK1KD
Format: binding
measurementContext: 2 µM LIMK1KD, compound 10 µM, single shot; read-out: TM Shift LIMK1 (K)
Reply numerically in °C, unit not repeated.

# annotated cases, reported ΔTm at 10 µM shown
O=C1c2ccc(Nc3ccc(F)cc3F)cc2CCc2ccc(OC[C@H](O)CO)cc21 [Skepinone-L]
-0.5
C=CCn1c(=O)c2cnc(Nc3ccc(N4CCN(C)CC4)cc3)nc2n1-c1cccc(C(C)(C)O)n1 [MK-1775]
1.2
C=CC(=O)Nc1cc2c(Nc3ccc(F)c(Cl)c3)ncnc2cc1OCCCN1CCOCC1 [Canertinib (CI-1033), Canertinib]
0.9
Cc1nc(NC(=O)N2CCC[C@H]2C(N)=O)sc1-c1ccnc(C(C)(C)C(F)(F)F)c1 [BYL719]
-0.5
CN1CCN(CCOc2cc(OC3CCOCC3)c3c(Nc4c(Cl)ccc5c4OCO5)ncnc3c2)CC1 [Saracatinib (AZD0530), Saracatinib]
1.2

Lookup: Can you look up the measured ΔTm at 10 µM of CC(C)(O)CC(=O)NCCn1ccc2ncnc(Nc3ccc(Oc4cccc(C(F)(F)F)c4)c(Cl)c3)c21 [TAK-285] for me?
Found: -1.1

Lookup: And what about the molecule CC1(COc2ccc3c(c2)ncn3-c2ccc3cccc(N4CCC(N)CC4)c3n2)COC1 [Crenolanib (CP-868596), Crenolanib] ?
Found: 1

Lookup: And what about the molecule C1=C/COCc2cc(ccc2OCCN2CCCC2)Nc2nccc(n2)-c2cccc(c2)COC/1 [Pacritinib (SB1518), Pacritinib] ?
Found: 1.6

Lookup: And what about the molecule Cn1cnc2c(F)c(Nc3ccc(Br)cc3Cl)c(C(=O)NOCCO)cc21 [Selumetinib (AZD6244), Selumetinib] ?
Found: 0.1

Lookup: And what about the molecule COC(=O)[C@]12CCC(C)(C)C[C@H]1[C@H]1C(=O)C=C3[C@@]4(C)C=C(C#N)C(=O)C(C)(C)[C@@H]4CC[C@@]3(C)[C@]1(C)CC2 [Bardoxolone Methyl] ?
Found: -1

Lookup: And what about the molecule Cc1cccc(-c2nn3c(c2-c2ccnc4ccc(C(N)=O)cc24)CCC3)n1 [Galunisertib] ?
Found: 0.3

Lookup: And what about the molecule NC(=O)c1ccc(N(C(N)=O)c2c(F)cccc2F)nc1-c1ccc(F)cc1F [VX-702] ?
Found: 0.6
